Molecular target: ALPK1 (Homo sapiens, UniProt Q96QP1)
Construct: endogenous in cells; host or cells: 293T cells
Sequence (Q96QP1 whole entry): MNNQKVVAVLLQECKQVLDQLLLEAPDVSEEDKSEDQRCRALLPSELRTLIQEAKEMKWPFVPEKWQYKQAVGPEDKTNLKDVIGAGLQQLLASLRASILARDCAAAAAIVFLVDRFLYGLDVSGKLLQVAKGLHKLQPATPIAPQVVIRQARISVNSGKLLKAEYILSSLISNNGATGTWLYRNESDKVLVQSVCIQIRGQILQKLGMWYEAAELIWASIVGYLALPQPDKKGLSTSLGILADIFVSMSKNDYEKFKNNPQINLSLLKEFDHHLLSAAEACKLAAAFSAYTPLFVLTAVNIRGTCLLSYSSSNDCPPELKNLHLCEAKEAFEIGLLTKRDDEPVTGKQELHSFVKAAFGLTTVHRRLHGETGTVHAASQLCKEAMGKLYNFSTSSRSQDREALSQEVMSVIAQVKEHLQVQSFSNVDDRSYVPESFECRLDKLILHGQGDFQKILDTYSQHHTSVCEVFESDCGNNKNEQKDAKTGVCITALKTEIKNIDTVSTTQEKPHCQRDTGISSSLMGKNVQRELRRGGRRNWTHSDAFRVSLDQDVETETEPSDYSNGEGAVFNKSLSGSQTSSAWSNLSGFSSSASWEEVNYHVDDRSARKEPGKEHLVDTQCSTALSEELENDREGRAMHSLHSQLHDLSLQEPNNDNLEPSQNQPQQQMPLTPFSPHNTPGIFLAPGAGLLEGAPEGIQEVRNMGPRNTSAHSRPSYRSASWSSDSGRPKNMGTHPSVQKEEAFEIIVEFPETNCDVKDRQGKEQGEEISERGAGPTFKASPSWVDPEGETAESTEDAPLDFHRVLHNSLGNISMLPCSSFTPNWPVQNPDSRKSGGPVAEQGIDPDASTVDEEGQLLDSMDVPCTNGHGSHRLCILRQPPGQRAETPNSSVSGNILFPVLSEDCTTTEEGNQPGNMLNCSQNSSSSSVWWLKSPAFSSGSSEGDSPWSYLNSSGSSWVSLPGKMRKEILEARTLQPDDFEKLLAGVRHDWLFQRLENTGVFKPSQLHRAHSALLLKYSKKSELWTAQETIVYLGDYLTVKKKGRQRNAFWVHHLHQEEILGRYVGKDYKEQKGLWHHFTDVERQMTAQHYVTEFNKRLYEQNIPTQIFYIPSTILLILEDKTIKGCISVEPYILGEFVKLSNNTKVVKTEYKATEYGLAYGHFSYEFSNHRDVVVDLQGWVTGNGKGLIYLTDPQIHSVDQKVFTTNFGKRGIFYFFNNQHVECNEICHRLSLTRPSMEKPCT
Assay: NF-κB luciferase reporter assay in 293T cells (cellular assay)
Format: cell-based
Procedure: The compounds disclosed herein activate NF-κB through ALPK1-TIFA axis as determined by the NF-κB luciferase reporter and TIFA phosphorylation. […] NF-κB luciferase activity was determined using the dual luciferase assay kit (Promega) according to the manufacturer's instructions. […] The EC50 of the compounds disclosed herein were determined by the NF-κB luciferase reporter assay using 293T cells described supra. […]
pEC50: −log10 of the molar value.
Assign Criterion met whenever pEC50 does not fall below 8; assign Criterion not met whenever it does.

Some solved entries appear below for comparison.
[
  {
    "molecule": "CC(=O)OC[C@H](OC(C)=O)C1OC(OP(=O)(O)OP(=O)(S)OC[C@H]2O[C@@H](n3ccc(=O)[nH]c3=O)[C@H](N(C)C)[C@@H]2O)C(OC(C)=O)C(OC(C)=O)C1OC(C)=O (stereo partly drawn) [Example 40C]",
    "discrete-label": "Criterion not met"
  },
  {
    "molecule": "C=C[C@@]1(O)[C@H](O)[C@@H](COP(=O)(S)OP(=O)(O)OC2OC([C@H](COC(C)=O)OC(C)=O)C(OC(C)=O)C(OC(C)=O)C2OC(C)=O)O[C@H]1c1cnc2c(N)ncnn12 (stereo partly drawn) [Example 127C]",
    "discrete-label": "Criterion met"
  },
  {
    "molecule": "CC(=O)OC[C@H](F)C1OC(OP(=O)(O)O[P@@](=O)(S)OC[C@H]2O[C@@H](n3cnc4c(N)ncnc43)[C@H](N(C)C)[C@@H]2O)C(OC(C)=O)C(OC(C)=O)C1OC(C)=O (stereo partly drawn) [Example 35K]",
    "discrete-label": "Criterion not met"
  }
]

IN: Exam item: decide whether the reported pEC50 for C=C[C@@]1(O)[C@H](O)[C@@H](COP(=O)(S)OP(=O)(O)OC2OC([C@H](COC(C)=O)OC(C)=O)C(OC(C)=O)C(OC(C)=O)C2OC(C)=O)O[C@H]1c1csc(C(N)=O)c1N (stereo partly drawn) [Example 126C] is at least 8.
OUT: Criterion not met

IN: For this molecule, is measured pEC50 8 or higher? C#C[C@@]1(N=[N+]=[N-])[C@H](O)[C@@H](COP(=O)(S)OP(=O)(O)OC2OC([C@H](COC(C)=O)OC(C)=O)C(OC(C)=O)C(OC(C)=O)C2OC(C)=O)O[C@H]1n1ccc(=O)[nH]c1=O (stereo partly drawn) [Example 110C]
OUT: Criterion not met

IN: Quick check: does C#C[C@@]1(O)[C@H](O)[C@@H](COP(=O)(S)OP(=O)(O)OC2OC([C@H](COC(C)=O)OC(C)=O)C(OC(C)=O)C(OC(C)=O)C2OC(C)=O)O[C@H]1c1csc2c(N)ncnc12 (stereo partly drawn) [Example 264C] have pEC50 greater than or equal to 8?
OUT: Criterion not met

----------
molecular target: ALPK1 (Homo sapiens, UniProt Q96QP1); construct: endogenous in cells; host or cells: 293T cells; assay: Enzymatic assay of ALPK1 activation; assay type: biochemical
Each entry below carries its reported pEC50.
pEC50 here: minus log base 10 of the concentration, concentration in moles per litre.

IN: // lookup pEC50 for C#C[C@@]1(F)[C@H](O)[C@@H](COP(=O)(S)OP(=O)(O)OC2OC([C@@H](O)CO)C(O)C(O)C2O)O[C@H]1n1cnc2c(N)ncnc21 (some centres unmarked) [Example 21D]
OUT: 7.59

IN: // query pEC50 value for entry C=C[C@@]1(O)[C@H](O)[C@@H](COP(=O)(S)OP(=O)(O)OC2OC([C@@H](O)CO)C(O)C(O)C2O)O[C@H]1n1ccc(=O)[nH]c1=O (some centres unmarked) [Example 43D]
OUT: 7.32

----------
# key: entry, value: EC50
molecular target: ALPK1 (Homo sapiens, UniProt Q96QP1); construct: endogenous in cells; host or cells: 293T cells; assay: NF-κB luciferase reporter assay in 293T cells (cellular assay); type: cell-based

[
  {
    "compound": "CC(=O)OC[C@H](OC(C)=O)C1OC(OP(=O)(O)O[P@@](=O)(S)OC[C@H]2O[C@@H](n3cnc4c(N)ncnc43)[C@H](N(C)C)[C@@H]2O)C(OC(C)=O)C(OC(C)=O)C1OC(C)=O (single isomer, unassigned) [Example 35G]",
    "reported": "16.9 nM"
  },
  {
    "compound": "CN(C)[C@@H]1[C@H](O)[C@@H](COP(=O)(S)OP(=O)(O)OC2OC([C@@H](O)CO)C(O)C(O)C2O)O[C@H]1n1cnc2c(N)ncnc21 (some centres unmarked) [Example 35D]",
    "reported": "38.7 nM"
  },
  {
    "compound": "C#C[C@@]1(O)[C@H](O)[C@@H](COP(=O)(S)OP(=O)(O)OC2OC([C@@H](F)COC(C)=O)C(OC(C)=O)C(OC(C)=O)C2OC(C)=O)O[C@H]1n1cnc2c(N)ncnc21 (some centres unmarked) [Example 25A]",
    "reported": "244 nM"
  },
  {
    "compound": "C#C[C@@]1(O)[C@H](O)[C@@H](COP(=O)(S)OP(=O)(O)OC2OC([C@H](COC(C)=O)OC(C)=O)C(OC(C)=O)C(OC(C)=O)C2OC(C)=O)O[C@H]1n1ccc(=O)[nH]c1=O (some centres unmarked) [Example 26C]",
    "reported": "45.5 nM"
  }
]

Turning to the following compound.
IN: // lookup EC50 | system=ALPK1 (Homo sapiens, UniProt Q96QP1) | key= CN[C@@H]1[C@H](O)[C@@H](COP(=O)(S)OP(=O)(O)OC2OC([C@@H](O)CO)C(O)C(O)C2O)O[C@H]1n1cnc2c(N)ncnc21 (some centres unmarked) [Example 34D]
OUT: 167 nM

----------
Molecular target: ALPK1 (Homo sapiens)
Construct: endogenous in cells; host or cells: 293T cells
Test: NF-κB luciferase reporter assay in 293T cells (cellular assay)
Format: cell-based
Experimental: The compounds disclosed herein activate NF-κB through ALPK1-TIFA axis as determined by the NF-κB luciferase reporter and TIFA phosphorylation. […] NF-κB luciferase activity was determined using the dual luciferase assay kit (Promega) according to the manufacturer's instructions. […] The EC50 of the compounds disclosed herein were determined by the NF-κB luciferase reporter assay using 293T cells described supra. […]
Below, each entry is listed alongside its reported pEC50.
Conceptually, pEC50 converts a concentration in mol/L into minus its log10.

Examples from the recorded data:
[
  {
    "compound": "C#C[C@@]1(O)[C@H](O)[C@@H](COP(=O)(S)OP(=O)(O)OC2OC([C@@H](O)CO)C(O)C(O)C2O)O[C@H]1n1cnc2c(N)ncnc21 (stereo partly shown) [Example 25D]",
    "pEC50": 8.08
  },
  {
    "compound": "C=C[C@@]1(O)[C@H](O)[C@@H](COP(=O)(S)OP(=O)(O)OC2OC([C@@H](O)CO)C(O)C(O)C2O)O[C@H]1n1cnc2c(N)ncnc21 (stereo partly shown) [Example 31D]",
    "pEC50": 7.79
  },
  {
    "compound": "C=C[C@@]1(O)[C@H](O)[C@@H](COP(=O)(S)OP(=O)(O)OC2OC([C@H](COC(C)=O)OC(C)=O)C(OC(C)=O)C(OC(C)=O)C2OC(C)=O)O[C@H]1n1ccc(=O)[nH]c1=O (stereo partly shown) [Example 43C]",
    "pEC50": 7.68
  },
  {
    "compound": "CN(C)[C@@H]1[C@H](O)[C@@H](CO[P@](=O)(S)OP(=O)(O)OC2OC([C@@H](O)CO)C(O)C(O)C2O)O[C@H]1n1cnc2c(N)ncnc21 (single isomer, unassigned) [Example 35I]",
    "pEC50": 7.96
  }
]

IN: Notebook entry, ALPK1 (Homo sapiens) assay: pEC50 of C#C[C@@]1(O)[C@H](O)[C@@H](COP(=O)(S)OP(=O)(O)OC2OC([C@H](COC(C)=O)OC(C)=O)C(OC(C)=O)C(OC(C)=O)C2OC(C)=O)O[C@H]1n1cnc2c(N)ncnc21 (stereo partly shown) [Example 25C] = ?
OUT: 7.70

IN: Please provide the recorded pEC50 for C=C[C@@]1(F)[C@H](O)[C@@H](COP(=O)(S)OP(=O)(O)OC2OC([C@H](COC(C)=O)OC(C)=O)C(OC(C)=O)C(OC(C)=O)C2OC(C)=O)O[C@H]1n1ccc(=O)[nH]c1=O (stereo partly shown) [Example 42C] , tested on ALPK1 (Homo sapiens).
OUT: 8.12

IN: pEC50 of CO[C@@H]1[C@H](O)[C@@H](COP(=O)(S)OP(=O)(O)OC2OC([C@H](COC(C)=O)OC(C)=O)C(OC(C)=O)C(OC(C)=O)C2OC(C)=O)O[C@H]1c1cnc2c(N)ncnn12 (stereo partly shown) [Example 322C] on ALPK1 (Homo sapiens)?
OUT: 8.17

IN: Lab note: need pEC50 for CN(C)[C@@H]1[C@H](O)[C@@H](COP(=O)(S)OP(=O)(O)OC2OC([C@@H](O)CO)C(O)C(O)C2O)O[C@H]1n1ccc(=O)[nH]c1=O (stereo partly shown) [Example 40D] on ALPK1 (Homo sapiens), anyone have it?
OUT: 6.15

IN: Provide the documented pEC50 with ALPK1 (Homo sapiens) as the system for CC(=O)OC[C@H](OC(C)=O)C1OC(OP(=O)(O)OP(=O)(S)OC[C@H]2O[C@@H](n3cnc4c(N)ncnc43)[C@H](N)[C@@H]2O)C(OC(C)=O)C(OC(C)=O)C1OC(C)=O (stereo partly shown) [Example 33C]
OUT: 7.40
